Where these numbers come from: patent US10301267B2

Target System: His6-tagged FGFR kinase domain (Homo sapiens, UniProt P11362, C488A/C584S)
Construct: FGFR kinase domain (amino acids 458-765, C488A, C584S) N-terminally fused to a His6-tag and TEV cleavage site; His6-tag plus linker and TEV cleavage site (printed as X1); made in house
Sequence (P11362 458-765 C488A/C584S): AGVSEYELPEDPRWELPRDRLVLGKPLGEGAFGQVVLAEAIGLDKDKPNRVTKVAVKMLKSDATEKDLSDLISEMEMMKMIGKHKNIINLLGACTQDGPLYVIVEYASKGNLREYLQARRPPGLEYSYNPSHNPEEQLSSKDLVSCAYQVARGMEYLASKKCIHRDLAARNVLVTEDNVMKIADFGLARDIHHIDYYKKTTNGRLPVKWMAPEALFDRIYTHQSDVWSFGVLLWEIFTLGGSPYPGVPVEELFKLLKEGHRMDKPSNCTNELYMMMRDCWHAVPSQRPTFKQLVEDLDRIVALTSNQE
Assay Name: FGFR Kinase assay - Elisa
Assay type: biochemical
Run Conditions: polyEAY substrate, 160 μM ATP; read-out: FGFR Kinase assay - Elisa, IC50
Value Kind: IC50 (nM)

COc1cccc(CCc2cc(NC(=O)c3ccc(N4CCN(C)CC4)cc3)[nH]n2)c1
82.8
CN1CCN(c2ccc(C(=O)Nc3cc(CCc4ccco4)n[nH]3)cc2)CC1
79.5

I. CN1CCN(c2ccc(C(=O)Nc3cc(CCc4ccccc4)n[nH]3)cc2)CC1
II. COc1cc(COc2cc(NC(=O)c3ccc(N4CCN(C)CC4)cc3)[nH]n2)cc(OC)c1
Exercise: Between the entries labeled I and II , whose measured IC50 is lower? // return label of chosen record
Solution: II
(II: 60 nM, I: 220 nM)
